Provenance of the data: PubChem BioAssay (NCI)

System: EKVX NSCLC
Assay: NCI tumour cell line growth inhibition, 48 h
Overview of recorded TGI for various compounds
Numbers only; they are read as µM.

Solved cases (5 shown):
O=C1C(Cl)=C(Nc2cc(Cl)ccc2O)C(=O)N1Cc1ccccc1 : 50.5
Nc1ccc(Cn2ccc3c4c(N)nc(N)nc4ccc32)cc1 : 23.1
O=C(Cn1c(C(=O)/C=C/c2ccc(Cl)cc2)nc2ccccc21)c1ccc(Cl)cc1 : 64.5
O=[N+]([O-])c1cccc(S(=O)(=O)N/N=C/c2cc(I)cc([N+](=O)[O-])c2O)c1 : 80
C[C@]12CC(C=O)C(=O)C(O)=C1CC[C@@H]1C2CC[C@@]2(C)C1CC[C@]2(C)O (stereo not given in full) : 96

So, CSCC(CO)NC(=O)/C=C/c1c(C)[nH]c(=O)[nH]c1=O (stereo not given) ? Its TGI was 872

So, CC(C)c1[nH]nc2c(NCc3ccc(-c4ccccn4)cc3)nc(SCCN(C)C)nc12 ? Its TGI was 2.54

So, COc1ccc(/C=C2\COc3ccc(O)c(O)c3C2=O)cc1OC ? Its TGI was 18.8

So, O=C1C(Cl)=C(Cl)C(=O)N1c1ccc(F)cc1 ? Its TGI was 40.6
